targetUnderTest: Sentrin-specific protease 6 (Homo sapiens) (UniProt Q9GZR1)
Sequence (Q9GZR1 628-1112 limits assumed): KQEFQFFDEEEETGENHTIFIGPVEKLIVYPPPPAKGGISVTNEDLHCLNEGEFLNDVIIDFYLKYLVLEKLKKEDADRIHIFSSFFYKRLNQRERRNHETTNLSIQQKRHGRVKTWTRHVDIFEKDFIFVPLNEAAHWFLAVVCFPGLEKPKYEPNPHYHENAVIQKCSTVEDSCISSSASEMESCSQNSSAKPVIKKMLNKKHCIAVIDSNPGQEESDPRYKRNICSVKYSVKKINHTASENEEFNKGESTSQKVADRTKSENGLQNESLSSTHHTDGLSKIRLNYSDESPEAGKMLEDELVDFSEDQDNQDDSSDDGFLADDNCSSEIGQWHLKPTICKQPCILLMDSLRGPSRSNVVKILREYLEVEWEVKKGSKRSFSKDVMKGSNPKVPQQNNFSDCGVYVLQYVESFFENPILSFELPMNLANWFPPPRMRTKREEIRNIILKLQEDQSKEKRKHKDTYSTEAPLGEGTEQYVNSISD
testName: SENP6 protease inhibitors, confirmation, biochemical, luminescence, single concentration (AID 488915)
experimentalParameters: recombinant SENP6, Z-RLRGG-aminoluciferin luminescence; at 12.5 µM; stronger effect = higher value
The list shows a part of the results.
1 means recorded inhibition is 20% or above; 0 means it is below 20%.

| molecule | class |
| --- | --- |
| Oc1ccc(N=Cc2sc3ccccc3c2Cl)cc1 | 0 |
| COc1cccc(OCC(O)CNC(=O)c2oc3c(C)c(C)ccc3c2C)c1 (stereo unspecified) | 0 |
| Oc1ccc(N=Nc2nccs2)c(O)c1 | 1 |
| CSc1ccccc1NC(=O)c1cc(C2CC2)on1 | 1 |
| O=C(Nc1ccncc1)c1cc2ccccc2o1 | 1 |
| Cc1[nH][nH]c(=O)c1C(c1ccc(-c2ccc(Cl)cc2)o1)c1c(C)[nH][nH]c1=O | 0 |
